system: GST-tagged-Wee1 kinase (Homo sapiens)
Sequence (P30291 whole entry): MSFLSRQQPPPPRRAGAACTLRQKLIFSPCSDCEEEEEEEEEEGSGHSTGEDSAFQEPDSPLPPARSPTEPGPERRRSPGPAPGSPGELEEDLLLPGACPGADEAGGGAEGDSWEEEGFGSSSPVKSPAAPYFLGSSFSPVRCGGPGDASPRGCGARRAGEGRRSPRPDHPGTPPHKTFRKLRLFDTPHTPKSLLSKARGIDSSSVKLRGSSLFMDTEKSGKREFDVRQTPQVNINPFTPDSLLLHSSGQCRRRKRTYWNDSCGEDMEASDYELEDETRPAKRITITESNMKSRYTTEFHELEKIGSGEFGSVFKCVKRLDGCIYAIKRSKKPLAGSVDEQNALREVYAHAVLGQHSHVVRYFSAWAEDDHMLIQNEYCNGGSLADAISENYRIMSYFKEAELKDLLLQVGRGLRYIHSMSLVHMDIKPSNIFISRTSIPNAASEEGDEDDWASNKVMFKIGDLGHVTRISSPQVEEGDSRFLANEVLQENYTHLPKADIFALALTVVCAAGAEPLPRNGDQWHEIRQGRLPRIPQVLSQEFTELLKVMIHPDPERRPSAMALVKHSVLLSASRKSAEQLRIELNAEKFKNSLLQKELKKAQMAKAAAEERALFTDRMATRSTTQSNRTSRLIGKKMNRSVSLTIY
assaySummary: Wee1 time-resolved fluorescence equilibrium binding assay (displacement of Oregon Green-labeled ATP-competitive kinase probe)
Quick list: Ki per entry.
measuredQuantity: Ki (pM)

CN1CCN(C(=O)c2cccc(-c3nn(-c4c(Cl)cccc4Cl)c(=O)c4cnc(Nc5ccc(N6CCN(C)CC6)cc5)nc34)c2)CC1 | 20
Cc1nn(-c2c(Cl)cccc2Cl)c(=O)c2cnc(Nc3cccc(C(=O)NC4CCN(C)CC4)c3)nc12 | 500
COC(=O)c1cc(-c2nn(-c3c(Cl)cccc3Cl)c(=O)c3cnc(Nc4ccc(N5CCN(C)CC5)cc4)nc23)ccn1 | 200
C=CCn1nc(-c2ccc(Cl)cc2Cl)c2nc(Nc3ccc(N4CCN(C)CC4)cc3)ncc2c1=O | 240000
CN1CCN(c2ccc(Nc3ncc4c(=O)n(-c5ccccc5)nc(Cc5ccccc5)c4n3)cc2)CC1 | 73000
C=CCn1nc(-c2ccccc2)c2nc(Nc3ccc(N4CCN(C)CC4)cc3)ncc2c1=O | 6000
Cc1nn(-c2c(Cl)cccc2Cl)c(=O)c2cnc(Nc3ccc4c(c3)CN(C(=O)C3CC3)CC4(C)C)nc12 | 820
